# System: Rfc1
# assay.explanation: Yeast two hybrid (Y2H) analysis of PCNA-partner interaction
# Format: binding
# Parameters: key: ++: major increase in growth; +: moderate increase in growth; similar growth as the WT PCNA-expressing cells; -: minor decrease in growth; --: moderate decrease in growth; ---: major decrease in growth
# recorded.conditions: spotting onto selective agar plates; PCNA fused to AD, partner to BD
endpoint.name: Y2H growth relative to WT PCNA-expressing strain: Rfc1

molecule	reported.measurement
pol30-Msh6E2: PCNA mutant evolved for Msh6, IDCL sequence DYDRDMLKISEL (protein, left off: Gal4 activation domain, end not stated, kept) MLEAKFEEASLFKRIIDGFKDCVQLVNFQCKEDGIIAQAVDDSRVLLVSLEIGVEAFQEYRCDHPVTLGMDLTSLSKILRCGNNTDTLTLIADNTPDSIILLFEDTKKDRIAEYSLKLMDYDRDMLKISELQYDSTLSLPSSEFSKIVRDLSQLSDSINIMITKETIKFVADGDIGSGSVIIKPFVDMEHPETSIKLEMDQPVDLTFGAKYLLDIIKGSSLSDRVGIRLSSEAPALFQFDLKSGFLQFFLAPKFNDEE	WT
